# method notes: Determination of solubility
# Assay type: physicochemical
# measurement conditions: water : butylene glycol mixture; Solvent H2O: BG, mixed solvent
Where a SMILES comes first, the peptide text is derived from it. [ ]: non-standard residue; d: D form.
recorded metric: solubility (µg/mL)
Response body: numeric value in µg/mL, unit text excluded.

Examples with their reported solubility follow.
CC(C)C[C@H](NC(=O)CN)C(=O)N[C@@H](Cc1ccc(O)cc1)C(=O)N[C@H](Cc1ccc(O)cc1)C(=O)N[C@@H](Cc1ccccc1)C(=O)O [Peptide P5-3, GLYyF (SEQ ID NO: 2)] | 3000
CC(C)C[C@H](N)C(=O)N[C@@H](Cc1ccc(O)cc1)C(=O)N[C@@H](Cc1ccc(O)cc1)C(=O)N[C@H](Cc1ccccc1)C(N)=O [Peptide P4-9, LYYf (SEQ ID NO: 1)-NH2] (H-LYY[dF]-NH2) | 4000

Please find the next compound below.
Input CC(C)C[C@@H](N)C(=O)N[C@@H](Cc1ccc(O)cc1)C(=O)N[C@@H](Cc1ccc(O)cc1)C(=O)N[C@@H](Cc1ccccc1)C(N)=O [Peptide P4-6, lYYF (SEQ ID NO: 1)-NH2] (H-[dL]YYF-NH2) . Output solubility: 4000

----------
# method notes: Determination of solubility
# Assay type: physicochemical
# measurement conditions: ethanol : propylene glycol mixture; Solvent EtOH: PG (propylene glycol), mixed solvent
recorded metric: solubility (µg/mL)
Response body: numeric value in µg/mL, unit text excluded.

Input CC(C)C[C@H](NC(=O)CN)C(=O)N[C@@H](Cc1ccc(O)cc1)C(=O)N[C@@H](Cc1ccc(O)cc1)C(=O)N[C@@H](Cc1ccccc1)C(=O)O [Peptide P5, GLYYF (SEQ ID NO: 2), reference compound] . Output solubility: 1000

----------
# method notes: Determination of solubility
# Format: physicochemical
# measurement conditions: water; Solvent H2O, single solvent
Where a SMILES comes first, the peptide text is derived from it. [ ]: non-standard residue; d: D form.
recorded metric: solubility (mg/mL)
Response body: numeric value in mg/mL, unit text excluded.

Input CC(C)C[C@H](N)C(=O)N[C@@H](Cc1ccc(O)cc1)C(=O)N[C@@H](Cc1ccc(O)cc1)C(=O)N[C@H](Cc1ccccc1)C(=O)O [Peptide P4-5, LYYf (SEQ ID NO: 1)] (H-LYY[dF]-OH; N-terminus assumed) . Output solubility: 2.5
